tested on: UACC-257 melanoma; test: NCI-60 one-dose screen, 48 h; conditions: 10 µM unless noted
Compounds without any hit were thinned out: in the full panel of roughly 83,000, 20% have a hit. The source made the active and inactive calls. Rule for the calls: active = growth percent below 10; inactive = the rest.
Labels: active, inactive

>>> labelvalue("N#Cc1c(-c2ccccc2)cc(-c2ccccc2)n(CCCC(=O)O)c1=O")
"inactive"
>>> labelvalue("Cc1[nH]cnc1/C=C1\\SC(N2CCCCC2)=NC1=O")
"inactive"
>>> labelvalue("Cc1cc(Cl)ccc1Nc1nc(C(F)(F)F)ccc1C(=O)N/N=C/c1ccc(Cl)cc1")
"inactive"
>>> labelvalue("CNc1nc(NC2CCCC2)nc(Sc2ccc(OC)cc2)n1")
"inactive"
>>> labelvalue("CC(C)OP(=O)(OC(C)C)c1ncc(-c2ccc(C(F)(F)F)cc2)c(NC2CCCCCC2)n1")
"active"
>>> labelvalue("NC(=O)NC1(C(=O)O)CCCC1")
"inactive"
>>> labelvalue("O=C1/C(=C\\c2coc3ccccc3c2=O)c2ccccc2N1c1c(Cl)cccc1Cl")
"inactive"
>>> labelvalue("CCc1nn2c(-c3ccc(Cl)cc3C)c(-c3cc(OC)c(OC)c(OC)c3)nc2s1")
"inactive"
>>> labelvalue("O=C1C(=O)/C(=C/c2ccccc2)CCCCCC/C1=C/c1ccccc1")
"inactive"
>>> labelvalue("ICCC(c1ccccc1)(c1ccccc1)c1ccccc1")
"active"
>>> labelvalue("O=C(Nc1ccccc1S)c1ccccc1")
"inactive"
>>> labelvalue("C/C(=C\\CCc1ccoc1)CC/C=C(\\C)CCCN1CCOCC1")
"inactive"
>>> labelvalue("COc1ccc2c(c1)sc1nc(-c3ccc(N(C)C)cc3)cn12")
"inactive"
>>> labelvalue("NC(=O)c1cc(Cl)ccc1NC(=O)c1ccccc1-c1ccccc1")
"inactive"
>>> labelvalue("CCOC(=O)C1=CCC(n2cc(C)c(=O)[nH]c2=O)O1 (configuration not stated)")
"inactive"
>>> labelvalue("COc1ccc(C2=NN(C(N)=S)C(c3ccc4c(c3)OCO4)C2)cc1 (configuration not stated)")
"inactive"
>>> labelvalue("N#Cc1c(-c2ccccc2)cc(-c2ccccc2)n(CCCCCCC(=O)O)c1=O")
"inactive"
>>> labelvalue("CCCCCCCCCCNCCSS(=O)(=O)O")
"inactive"
>>> labelvalue("COc1ccc(C2=NN(C(C)=O)C(c3cccc(Nc4ccnc5cc(Cl)ccc45)c3)C2)cc1 (configuration not stated)")
"inactive"
>>> labelvalue("O=C(O)C1CCN(S(=O)(=O)c2ccc(-c3ccccc3)cc2)CC1")
"inactive"
>>> labelvalue("COc1ccc(NC(=O)c2ccccc2-c2ccccc2)c(C(N)=O)c1")
"inactive"
>>> labelvalue("CS(=O)(=O)N1CCN(Cc2cc3nc(-c4cccc5[nH]ncc45)nc(N4CCOCC4)c3s2)CC1 (tested in a mixture with another compound)")
"inactive"
>>> labelvalue("O[N+]1=CC=CCC1=S.On1ccccc1=S.[Zn]")
"active"
>>> labelvalue("C=C1CCC2C3(C)COC(c4ccccc4)OC3CCC2(C)C1C/C=C1/C(=O)OCC1OC(C)=O (configuration not stated)")
"inactive"
>>> labelvalue("NS(=O)(=O)c1ccc(-n2ncc3c(SCc4ccccc4)ncnc32)cc1")
"inactive"
>>> labelvalue("COc1ccc(-c2cc(-c3nnc(SCC(=O)Nc4ccc(C(C)=O)cc4)n3-c3ccccc3)c3ccccc3n2)cc1OC")
"inactive"
>>> labelvalue("O=C(c1ccccc1)C(CN1CCCCC1)c1ccccc1 (configuration not stated)")
"inactive"
>>> labelvalue("COc1ccc2nc(NC(=O)CN3CCn4c(nnc4C(F)(F)F)C3)sc2c1")
"inactive"
>>> labelvalue("CC[C@@H](c1ccc(O)c(O)c1)[C@@H](CC)c1ccc(O)c(O)c1")
"inactive"
>>> labelvalue("COc1ccc2nc(N/N=C(\\C)c3ccccn3)cc(C)c2c1")
"inactive"
>>> labelvalue("CC(=O)N1N=C(c2ccc(Nc3ccnc4cc(Cl)ccc34)cc2)CC1c1ccc(Cl)cc1 (configuration not stated)")
"inactive"
>>> labelvalue("OCCCc1n(Cc2ccc3ccccc3c2)c2ccccc2[n+]1Cc1ccc2ccccc2c1")
"active"
>>> labelvalue("COc1ccc(-c2cc(-c3cccnc3)nc3sc(C(=O)Nc4ccccc4)c(N)c23)cc1OC")
"inactive"
>>> labelvalue("O=C(Nc1cccc(-n2cc(-c3ccncc3)c(-c3cc(O)cc(Cl)c3)n2)c1)Nc1ccc(Cl)c(Cl)c1")
"active"
>>> labelvalue("COc1ccc(-c2cnc(SCC(=O)Nc3ccc(-c4nc5ccccc5s4)cc3)n2-c2ccc(OC)cc2)cc1")
"inactive"
>>> labelvalue("COc1cc(NC(C)CCCN)c2nc(C)ccc2c1Oc1ccc(F)cc1 (configuration not stated)")
"inactive"
>>> labelvalue("C1=C(Cc2ccccc2)n2cnc3ncnc(c32)S1")
"inactive"
>>> labelvalue("Cn1cc(NC(=O)Nc2cc(C(=O)O)n(C)c2)cc1C(=O)O")
"inactive"
>>> labelvalue("Nc1ccccc1C#Cc1ccccc1C#Cc1ccc(OCCCCCCOc2ccc(C#Cc3ccccc3C#Cc3ccccc3N)cc2)cc1")
"inactive"
>>> labelvalue("CC(=O)N1N=C(c2ccc3c(c2)OCO3)CC1c1c(C)nn(-c2ccccc2)c1N(C)Cc1ccccc1 (configuration not stated)")
"inactive"
>>> labelvalue("CCOC(=O)Nc1ccc2c3c(cccc13)-c1ccccc1-2")
"inactive"
>>> labelvalue("Cc1cn(C(C=O)OC(C=O)CO)c(=O)[nH]c1=O (configuration not stated)")
"inactive"

* * *

tested on: SK-OV-3 ovarian; experiment: NCI-60 one-dose screen, 48 h; conditions: 10 µM unless noted
Compounds without any hit were thinned out: in the full panel of roughly 83,000, 20% have a hit. The source made the active and inactive calls. Rule for the calls: active = growth percent below 10; inactive = the rest.
Labels: yes (1) = active, no (0) = inactive

>>> labelvalue("COc1c(O)cc2c(c1CC=C(C)C)OC(=O)c1c(cc(O)c(CC=C(C)C)c1O)O2")
"no (0)"
>>> labelvalue("O=C(CSc1ncc(-c2ccccc2)n1-c1ccccc1)Nc1ccc(-c2nc3ccccc3s2)cc1")
"no (0)"
>>> labelvalue("COC(=O)[C@H](Cc1cn(C)cn1)NC(=O)[C@@H](NC(=O)Nc1cc(C(F)(F)F)cc(C(F)(F)F)c1)C(C)C")
"yes (1)"
>>> labelvalue("O=C1N=C(N2CCOCC2)S/C1=C\\c1cn(-c2ccccc2)nc1-c1ccccc1")
"no (0)"
>>> labelvalue("Cc1[nH]cnc1/C=C1\\SC(N2CCCCC2)=NC1=O")
"no (0)"
>>> labelvalue("CC(C)Sc1nc(-c2ccc(Br)cc2)c(C#N)c(N2CCCCC2)n1")
"no (0)"
>>> labelvalue("O=c1sc2ncnc3ncn1c32")
"no (0)"
>>> labelvalue("COc1ccc2c(=O)c(OC)c(-c3cc(OC)c(OC)c(OC)c3)oc2c1")
"no (0)"
>>> labelvalue("CC(=O)Nc1c(Cl)cc2c(c1Cl)Cc1cc([N+](=O)[O-])ccc1-2")
"no (0)"
>>> labelvalue("O=C(/C=C/c1ccc(C(F)(F)F)cc1)c1ccc(Nc2nc(NCCO)nc(NCCO)n2)cc1")
"no (0)"

* * *

tested on: TK-10 renal; test: NCI-60 one-dose screen, 48 h; conditions: 10 µM unless noted
About 83,000 compounds went through this panel and 20% of them were active in at least one assay; those are over-represented in the sample as a whole. Activity calls are given as the source filed them. How the source made its calls: active means growth percent below 10; inactive means the rest.
Labels: 1 for active, 0 for inactive

>>> labelvalue("CC[C@@H](C)/C=C(C)/C=C/C(O)=C1\\C(=O)N[C@@H](Cc2ccc(OC(=O)[C@@](OC)(c3ccccc3)C(F)(F)F)cc2)C1=O")
0
>>> labelvalue("O=C(Nc1ccc(Cl)cc1)Nc1ccccc1CNc1nc(Nc2ccc(OCCN3CCCC3)cc2)ncc1Cl")
1
>>> labelvalue("CN1CCN(CCCOc2ccc3ncnc(Nc4ccc(OCc5cccc(F)c5)c(Cl)c4)c3c2)CC1")
1
>>> labelvalue("c1ccc(N2c3nc4ccccc4cc3Sc3cc4ccccc4nc32)nc1")
0
>>> labelvalue("O=C(Nc1ccccc1OC(=O)c1ccccc1)c1ccccc1")
0
>>> labelvalue("NS(=O)(=O)c1ccc(N2CC(c3nc4ccccc4[nH]3)CC2=O)cc1 (stereo not given)")
0
>>> labelvalue("CCCCCN1C(=O)CCC1=O")
0
>>> labelvalue("COc1ccc(C2=NN(C(C)=O)C(c3cccc(Nc4ccnc5cc(Cl)ccc45)c3)C2)cc1 (stereo not given)")
0
>>> labelvalue("CN(C)CCCNc1nn2c(=O)c3ccccc3nc2c2ccccc12")
0
>>> labelvalue("CNc1nc(NC2CCCC2)nc(Sc2ccc(OC)cc2)n1")
0

* * *

Recorded growth for the following molecules
test system: SR leukemia; experiment: NCI-60 one-dose screen, 48 h (100 = growth as untreated, 0 = no growth, -100 = all killed); conditions: 10 µM unless noted
About 83,000 compounds went through this panel and 20% of them were active in at least one assay; those are over-represented in the sample as a whole. Active and inactive are the calls of the source. The calls were made as follows: active = growth percent below 10; inactive = the rest.
measuredMetric: growth

>>> measurement("Cc1cc2c(cc1C)[n+](Cc1ccc3ccccc3c1)cn2Cc1ccc2ccccc2c1")
"-50.6% (active)"
>>> measurement("Cc1ccc(-c2cc(-c3ccccc3)n(-c3ccccc3)n2)cc1")
"72.3% (inactive)"
>>> measurement("Cc1sc2nc(NCc3ccccc3)[nH]c(=O)c2c1C")
"14.4% (inactive)"
>>> measurement("CCOC1Oc2ccccc2C(=O)/C1=N/c1nccs1 (stereo not drawn)")
"57.1% (inactive)"
>>> measurement("O=C(c1ccccc1)C(CN1CCCCC1)c1ccccc1 (stereo not drawn)")
"-3.65% (active)"
>>> measurement("C[C@]12CCC(=O)C=C1CCC1C2[C@@H](O)C[C@@]2(C)C1CC[C@]2(O)C(=O)COC(=O)CCC(=O)O (stereo partly drawn)")
"105% (inactive)"
>>> measurement("OC(c1cc(-c2cccc(Cl)c2)nc2ccccc12)C1CCCCN1 (stereo not drawn)")
"-33.8% (active)"
>>> measurement("CCCCCCCCN(CCO)CCCCCCCC")
"96.7% (inactive)"
>>> measurement("C[C@@H]1[C@H]2[C@H](C=C3[C@@H]4CC[C@H]5Cc6nc7c(nc6C[C@]5(C)[C@H]4C[C@@H](O)[C@@]32C)C[C@@H]2CC[C@H]3C4=C[C@@H]5O[C@@]6(CC[C@](C)(CO)O6)[C@@H](C)[C@@]5(O)[C@@]4(C)[C@H](O)C[C@@H]3[C@@]2(C)C7)O[C@]12CCC(C)(C)O2")
"2.45% (active)"
>>> measurement("Cc1sc2nc(N3CCCCC3)[nH]c(=O)c2c1C")
"97% (inactive)"
>>> measurement("O=C(C(=O)N1CCOCC1)c1cn(CCCn2cc(C(=O)C(=O)N3CCOCC3)c3ccccc32)c2ccccc12")
"103% (inactive)"
>>> measurement("C/C(=C\\CCc1ccsc1)CC/C=C(\\C)CCCN1CCSCC1")
"53.6% (inactive)"
>>> measurement("CCOC(=O)OCC(=O)[C@@]1(O)CC[C@H]2[C@@H]3CCC4=CC(=O)CC[C@]4(C)[C@H]3[C@@H](O)C[C@@]21C")
"109% (inactive)"
>>> measurement("CC(=O)Nc1c(Cl)cc2c(c1Cl)Cc1ccccc1-2")
"101% (inactive)"
>>> measurement("O=C(c1ccccc1)c1ccc(Oc2ccc([N+](=O)[O-])cc2[N+](=O)[O-])cc1")
"14.6% (inactive)"
>>> measurement("CN[C@@H]1C(OC2[C@H](O[C@H]3[C@H](O)[C@@H](O)[C@H](N=C(N)N)[C@@H](O)[C@@H]3N=C(N)N)OC(C)[C@]2(O)CO)OC(CO)C(O)C1O (stereo partly drawn)")
"102% (inactive)"
>>> measurement("CCN(Cc1cccc(S(=O)(=O)[O-])c1)c1ccc(C(=C2C=CC(=[N+](CC)Cc3cccc(S(=O)(=O)O)c3)C=C2)c2ccccc2S(=O)(=O)O)cc1")
"95.6% (inactive)"
>>> measurement("Cc1cc(Br)c(C)cc1Br")
"83.7% (inactive)"
>>> measurement("COc1cnc2c(c1)C(=O)c1c-2n(CCCNC(C)C)c(=O)c2cc(F)ccc12")
"-13.4% (active)"
>>> measurement("Cc1ncc(C(=O)Nc2ccc(CN3CCN(C)CC3)c(C(F)(F)F)c2)cc1C#Cc1cncc2ncccc12")
"-13.2% (active)"
>>> measurement("Oc1c(N=Nc2nn[nH]n2)ccc2ccccc12")
"106% (inactive)"
>>> measurement("C/C(=C\\CCc1ccoc1)CC/C=C(\\C)CCCN1CCSCC1")
"45.6% (inactive)"
>>> measurement("CCOC(=O)c1sc(NC(=O)COc2cccc(/C=C3\\Cc4ccc(Cl)cc4C3=O)c2)nc1C")
"114% (inactive)"
>>> measurement("COc1cc(C2CC(C3C(=O)N(C)C(=O)N(C)C3=O)=NN2C=O)cc(OC)c1OC (stereo not drawn)")
"105% (inactive)"
>>> measurement("CCCn1c(N)c(C(=O)CNc2ccc(I)cc2)c(=O)[nH]c1=O")
"139% (inactive)"
>>> measurement("C[C@H](C(=O)N[C@@H](Cc1ccc(-c2ccccc2)cc1)C(=O)NC1CC(C)(C)NC(C)(C)C1)c1ccc(-c2ccccc2)c(F)c1")
"-27.5% (active)"
>>> measurement("COc1ccc(C2=NN(C(C)=O)C(c3c(C)nn(-c4ccccc4)c3N3CCOCC3)C2)cc1 (stereo not drawn)")
"90.5% (inactive)"
>>> measurement("O=C(Nc1ccc(Cl)cc1)Nc1ccccc1CNc1nc(Nc2ccc(OCCN3CCCC3)cc2)ncc1Cl")
"1.33% (active)"
>>> measurement("COc1ccc2nc(NC(=O)CN3CCn4c(nnc4C(F)(F)F)C3)sc2c1")
"87.8% (inactive)"
>>> measurement("Nc1nc(SCc2cccnc2)c2ncn(C3OC(CO)C(O)C3O)c2n1 (stereo not drawn)")
"118% (inactive)"
>>> measurement("NS(=O)(=O)c1cc(C2(O)NC(=O)c3ccccc32)ccc1Cl (stereo not drawn)")
"91.9% (inactive)"
>>> measurement("COc1cc(-c2nnc(-c3nc(-c4cc(OC)c(OC)c(OC)c4)n4ccccc34)o2)ccc1N")
"69.6% (inactive)"
>>> measurement("O=C(N/N=C/c1cccc(O)c1O)c1ccccc1")
"18.2% (inactive)"
>>> measurement("CCOc1cc(CCNS(=O)(=O)c2ccc(C)cc2)c(C(C)=O)cc1OCC")
"42.6% [100 µM] (inactive)"
>>> measurement("COc1ccc(NC(=O)c2ccc(-c3ccccc3)cc2)c(C(N)=O)c1")
"72.2% (inactive)"
>>> measurement("Clc1ccc2[nH]cc(-c3cncn3CCc3ccccc3)c2c1")
"41% (inactive)"
>>> measurement("c1ccc2nc(N/N=C3\\CCCCC3C3CCCCC3)ccc2c1 (stereo not drawn)")
"-17.5% (active)"
>>> measurement("COc1cccc(C=Nc2cc(C(C)C)c(O)cc2C)c1O")
"113% (inactive)"
